System: S. cerevisiae Mot1-301 ts growth rescue, BacTiter-Glo ATP luminescence
assayComment: restored Mot1-301 yeast growth at 38.5C – whole organism, S. cerevisiae, Mot1-301 ts mutant, luminescence, dose retest, SUMOylation pathway inhibitor project, confirmation (AID 463204);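 note: growth at restrictive 38.5 degrees C of Mot1-301 OY566 strain; actives raise luminescence by restoring growth of the ts mutant at high temperature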
Calls of active or inactive are those of the source.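 Rule for the calls: active = AC50 no more than ten times the top concentration tested, that is within one log above it; inconclusive = flat curve fit with activity between 30% and 70%, or invalid poor fit; inactive = AC50 beyond ten times the top tested dose.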
Write down one outcome, taken from active, inactive

Give the logged outcome of this assay for the following molecule: `Cc1cc(=O)n2[nH]c(-c3ccc(F)cc3)nc2n1`
inactive

* * *

System: S. cerevisiae Mot1-301 ts growth rescue, BacTiter-Glo ATP luminescence
assayComment: restored Mot1-301 yeast growth at 38.5C – whole organism, S. cerevisiae, Mot1-301 ts mutant, luminescence, dose retest, SUMOylation pathway inhibitor project, confirmation (AID 463204);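 note: growth at restrictive 38.5 degrees C of Mot1-301 OY566 strain; actives raise luminescence by restoring growth of the ts mutant at high temperature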
The source made the active and inactive calls.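 How the source made its calls: active means AC50 no more than ten times the top concentration tested, that is within one log above it; inconclusive means flat curve fit with activity between 30% and 70%, or invalid poor fit; inactive means AC50 beyond ten times the top tested dose.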
Write down one outcome, taken from yes (1) (active), no (0) (inactive)

Check out these entries, answers already filled in.
- compound: "OC(COc1ccccc1)Cn1c2ccccc2c2ccccc21 (stereo unspecified)"
  discreteLabel: "yes (1)"
- compound: "CCN(CC)c1nc2c(c(=O)[nH]c(=O)n2C)n1CCOc1ccccc1"
  discreteLabel: "no (0)"
- compound: "O=c1c2ccccc2c2ccccc2c(=O)n1-c1ccccc1"
  discreteLabel: "no (0)"
- compound: "C=CCC(NCCCO)c1cccc(OC)c1OC (stereo unspecified)"
  discreteLabel: "no (0)"

Give the logged outcome of this assay for the following compound: `CCCCN(C)C(=O)c1cc2c(Cl)nc3ccccc3c2s1`
no (0)

Give the logged outcome of this assay for the following compound: `Nc1ccc(Oc2ccccc2-c2ccccc2)cc1`
yes (1)

* * *

System: S. cerevisiae Mot1-301 ts growth rescue, BacTiter-Glo ATP luminescence
assayComment: restored Mot1-301 yeast growth at 38.5C – whole organism, S. cerevisiae, Mot1-301 ts mutant, luminescence, dose retest, SUMOylation pathway inhibitor project, confirmation (AID 463204);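 note: growth at restrictive 38.5 degrees C of Mot1-301 OY566 strain; actives raise luminescence by restoring growth of the ts mutant at high temperature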
The source made the active and inactive calls.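 How the source made its calls: active means AC50 no more than ten times the top concentration tested, that is within one log above it; inconclusive means flat curve fit with activity between 30% and 70%, or invalid poor fit; inactive means AC50 beyond ten times the top tested dose.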
Write down one outcome, taken from active, inactive

- compound: "O=C(COC(=O)c1ccc([N+](=O)[O-])o1)Nc1ncc(Cl)cc1Cl"
  discreteLabel: "active"
- compound: "CCS(=O)(=O)N1CCC(C(=O)N2CCc3ccccc3C2)CC1"
  discreteLabel: "inactive"
- compound: "COc1ccc(N(C(=O)c2ccco2)C(C(=O)NC2CCCCC2)c2ccccc2)cc1 (stereo unspecified)"
  discreteLabel: "inactive"

Give the logged outcome of this assay for the following compound: `CCNCc1nc2cc(Cl)ccc2c(=O)[nH]1`
inactive

Give the logged outcome of this assay for the following compound: OC1(c2ccc(F)cc2)CC2CCC(C1)N2Cc1nnnn1C1CCCCC1 (stereo unspecified)
inactive

Give the logged outcome of this assay for the following compound: `CCS(=O)(=O)c1nc(S(=O)(=O)c2ccc(Cl)cc2)c(N2CCc3ccccc3C2)s1`
inactive

* * *

Test system: S. cerevisiae Mot1-301 ts growth rescue, BacTiter-Glo ATP luminescence
assayComment: restored Mot1-301 yeast growth at 38.5C – whole organism, S. cerevisiae, Mot1-301 ts mutant, luminescence, dose retest, SUMOylation pathway inhibitor project, confirmation (AID 463204);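 note: growth at restrictive 38.5 degrees C of Mot1-301 OY566 strain; actives raise luminescence by restoring growth of the ts mutant at high temperature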
Activity calls are given as the source filed them.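 How the source made its calls: active means AC50 no more than ten times the top concentration tested, that is within one log above it; inconclusive means flat curve fit with activity between 30% and 70%, or invalid poor fit; inactive means AC50 beyond ten times the top tested dose.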
measurementLabel: AC50

Worked examples follow.
- molecule: "C/C(=N\\N=C(/N)SC1CC(=O)N(c2cccc(Cl)c2)C1=O)c1cccs1 (stereo not given)"
  testSystem: "S. cerevisiae Mot1-301 ts growth rescue, BacTiter-Glo ATP luminescence"
  measuredResult: "> 42 µM (inactive)"
- molecule: "O=S(=O)(NCc1ccco1)c1ccc2ccccc2c1"
  testSystem: "S. cerevisiae Mot1-301 ts growth rescue, BacTiter-Glo ATP luminescence"
  measuredResult: "> 42 µM (inactive)"
- molecule: "COc1ccccc1/C=C/C(=O)N1CCc2cc(OC)c(OC)cc2C1C (stereo not given)"
  testSystem: "S. cerevisiae Mot1-301 ts growth rescue, BacTiter-Glo ATP luminescence"
  measuredResult: "> 42 µM (inactive)"

Value lookup for AC50; key = `O=C(Nc1ccc(Cl)cc1)N1CCC(c2nc(-c3ccc(F)cc3)no2)CC1`
> 42 µM (inactive)

Value lookup for AC50; key = `O=[N+]([O-])c1cccc(-c2nc3ccc([N+](=O)[O-])cc3[nH]2)c1`
> 42 µM (inactive)
